Assay: Solubility by nephelometric analysis
Format: physicochemical
MEASURE: solubility kinetic

O=C1O[C@@H](Cn2ccnn2)CN1c1ccc(-c2ccc(C(O)C3CCNCC3)nc2)c(F)c1 (stereo not given in full); > 400 µM
C[C@H](O)c1ccc(-c2ccc(N3C[C@H](Cn4ccnn4)OC3=O)cc2F)cn1; > 400 µM
O=C1O[C@@H](Cn2ccnn2)CN1c1ccc(-c2ccc(C(O)CN3CCOCC3)nc2)c(F)c1 (stereo not given in full); > 400 µM
O=C1O[C@@H](Cn2ccnn2)CN1c1ccc(-c2ccc(C(O)CO)nc2)c(F)c1 (stereo not given in full); > 400 µM

[in] Give recorded solubility kinetic. `O=C(c1ccc(-c2ccc(N3C[C@H](Cn4ccnn4)OC3=O)cc2F)cn1)C1CNC1`
[out] 200 µM

====

Experiment: Volume of distribution in Wistar rat at 2 mg/kg, iv
Format: ADME, organism-based
Parameters: dose 2 mg/kg, route intravenous
Conditions: in vivo, read-out: Vdss
# Vd values compiled below
Reply numerically in L/kg, unit not repeated.

[in] Look up and report measured Vd for this entry: `Cc1cnc(C)n1CC(=O)c1ccc(-c2ccc(N3C[C@H](Cn4ccnn4)OC3=O)cc2F)cn1`
[out] 1.4

[in] Identify the reported Vd for the following entry. `Cc1cn(CC(=O)c2ccc(-c3ccc(N4C[C@H](Cn5ccnn5)OC4=O)cc3F)cn2)c(C)n1`
[out] 0.9

[in] Consider the molecule `CCc1nccn1CC(=O)c1ccc(-c2ccc(N3C[C@H](Cn4ccnn4)OC3=O)cc2F)cn1` . State its measured Vd.
[out] 0.9

====

System: Mus musculus
Test: AUC in Streptococcus pneumoniae 548 infected mouse lung infection model at 80 mg/kg/day, po
Format: ADME, organism-based
Parameters: route oral
Conditions: in vivo
MEASURE: AUC (ng·h/mL)
Kindly provide the numeric value in ng·h/mL only, without the unit symbol.

Cc1cnc(C)n1CC(=O)c1ccc(-c2ccc(N3C[C@H](Cn4ccnn4)OC3=O)cc2F)cn1; 31000

[in] Entry `CC(=O)NC[C@H]1CN(c2ccc(N3CCOCC3)c(F)c2)C(=O)O1` needs its AUC filled in; supply it.
[out] 105000

====

Here, each record is paired with measured half-life data.
Experiment: Half life in Wistar rat at 10 mg/kg, iv
Type: ADME, organism-based
Parameters: dose 10 mg/kg, route intravenous
Details: in vivo
A number alone suffices; assume h.

C[C@H](O)c1ccc(-c2ccc(N3C[C@H](Cn4ccnn4)OC3=O)cc2F)cn1; 1
O=C1O[C@@H](Cn2ccnn2)CN1c1ccc(-c2ccc(C(O)CO)nc2)c(F)c1 (stereo not given in full); 0.45
Cc1nccn1CC(=O)c1ccc(-c2ccc(N3C[C@H](Cn4ccnn4)OC3=O)cc2F)cn1; 0.4
O=C(c1ccc(-c2ccc(N3C[C@H](Cn4ccnn4)OC3=O)cc2F)cn1)C1CCNCC1; 2.4

Now, please, on to the next molecule.
[in] Name the recorded half-life of the item `O=C(CC1CCNCC1)c1ccc(-c2ccc(N3C[C@H](Cn4ccnn4)OC3=O)cc2F)cn1` in your answer.
[out] 2.4

====

Species: Homo sapiens
Assay: Protein binding in human plasma
Conditions: read-out: PPB (converted)
MEASURE: fraction unbound
The answer should be written as a number, with no unit following it.

Cc1nccn1CC(=O)c1ccc(-c2ccc(N3C[C@H](Cn4ccnn4)OC3=O)cc2F)cn1; 0.25

[in] State its fraction unbound for this compound: `Cc1cnc(C)n1CC(=O)c1ccc(-c2ccc(N3C[C@H](Cn4ccnn4)OC3=O)cc2F)cn1`
[out] 0.1

[in] Identify measured fraction unbound associated with `O=C(CCCN1CCOCC1)c1ccc(-c2ccc(N3C[C@H](Cn4ccnn4)OC3=O)cc2F)cn1`
[out] 0.35

[in] Supply fraction unbound value. Item: O=C1O[C@@H](Cn2ccnn2)CN1c1ccc(-c2ccc(C(O)CO)nc2)c(F)c1 (stereo not given in full)
[out] 0.54

[in] In one line, give reported fraction unbound of the entry O=C1O[C@@H](Cn2ccnn2)CN1c1ccc(-c2ccc(C(O)CN3CCOCC3)nc2)c(F)c1 (stereo not given in full) .
[out] 0.67

====

Biological target: Cytochrome P450 2D6 (Homo sapiens, UniProt P10635)
Sequence (P10635 whole entry): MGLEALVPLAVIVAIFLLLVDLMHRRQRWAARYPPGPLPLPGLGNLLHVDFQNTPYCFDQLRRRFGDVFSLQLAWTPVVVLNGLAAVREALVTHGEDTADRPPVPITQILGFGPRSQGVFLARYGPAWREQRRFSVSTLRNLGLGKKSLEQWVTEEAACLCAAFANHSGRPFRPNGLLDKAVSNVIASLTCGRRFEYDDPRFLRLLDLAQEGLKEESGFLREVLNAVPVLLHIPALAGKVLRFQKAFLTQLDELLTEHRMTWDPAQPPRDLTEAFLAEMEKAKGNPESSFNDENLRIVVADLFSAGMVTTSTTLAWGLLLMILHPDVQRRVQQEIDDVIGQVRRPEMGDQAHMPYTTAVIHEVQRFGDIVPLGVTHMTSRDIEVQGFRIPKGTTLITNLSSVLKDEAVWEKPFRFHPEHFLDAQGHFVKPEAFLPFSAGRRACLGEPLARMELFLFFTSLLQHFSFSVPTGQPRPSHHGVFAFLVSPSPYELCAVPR
Experiment: Inhibition of human recombinant CYP2D6
pIC50: −log10 of the molar value.
# pIC50 per record follows

O=C1O[C@@H](Cn2ccnn2)CN1c1ccc(-c2ccc(CO)nc2)c(F)c1; < 4.70
Cc1cnc(C)n1CC(=O)c1ccc(-c2ccc(N3C[C@H](Cn4ccnn4)OC3=O)cc2F)cn1; < 4.70
Cc1cn(CC(=O)c2ccc(-c3ccc(N4C[C@H](Cn5ccnn5)OC4=O)cc3F)cn2)cn1; < 4.70
Cc1nccn1CC(=O)c1ccc(-c2ccc(N3C[C@H](Cn4ccnn4)OC3=O)cc2F)cn1; < 4.70

# ---- query compound ----
[in] Tell us which pIC50 value is on record for `O=C1O[C@@H](Cn2ccnn2)CN1c1ccc(-c2cccnc2)c(F)c1`
[out] 5.18

====

Assay: Volume of distribution in Wistar rat at 10 mg/kg, iv
Type: ADME, organism-based
Parameters: dose 10 mg/kg, route intravenous
Settings: in vivo, read-out: Vdss
MEASURE: log10 of Vd (log10 of the value in L/kg)
Transform log10 | Measure Vd | Unit L/kg

Cc1nccn1CC(=O)c1ccc(-c2ccc(N3C[C@H](Cn4ccnn4)OC3=O)cc2F)cn1; -0.52
O=C1O[C@@H](Cn2ccnn2)CN1c1ccc(-c2ccc(C(O)CO)nc2)c(F)c1 (stereo not given in full); 0.00
C[C@H](O)c1ccc(-c2ccc(N3C[C@H](Cn4ccnn4)OC3=O)cc2F)cn1; 0.11
O=C(c1ccc(-c2ccc(N3C[C@H](Cn4ccnn4)OC3=O)cc2F)cn1)C1CCNCC1; 0.58

[in] Report log10 of Vd, nothing else, for this compound: `O=C(CC1CCNCC1)c1ccc(-c2ccc(N3C[C@H](Cn4ccnn4)OC3=O)cc2F)cn1`
[out] 1.18

====

Experiment: AUC in Wistar rat at 10 mg/kg, iv
Type: ADME, organism-based
Set-up: dose 10 mg/kg, route intravenous
Conditions: plasma
Threshold-based label: AUC under 4000 ng·h/mL gives fulfilled, AUC not under 4000 ng·h/mL gives not fulfilled.

Example cases with answers are listed next.
O=C(CC1CCNCC1)c1ccc(-c2ccc(N3C[C@H](Cn4ccnn4)OC3=O)cc2F)cn1; fulfilled
C[C@H](O)c1ccc(-c2ccc(N3C[C@H](Cn4ccnn4)OC3=O)cc2F)cn1; not fulfilled

Here is the next item to consider.
[in] Item `Cc1nccn1CC(=O)c1ccc(-c2ccc(N3C[C@H](Cn4ccnn4)OC3=O)cc2F)cn1` : AUC beneath 4000 ng·h/mL, strictly?
[out] fulfilled

====

Target: Cytochrome P450 3A4 (Homo sapiens, UniProt P08684)
Sequence (P08684 whole entry): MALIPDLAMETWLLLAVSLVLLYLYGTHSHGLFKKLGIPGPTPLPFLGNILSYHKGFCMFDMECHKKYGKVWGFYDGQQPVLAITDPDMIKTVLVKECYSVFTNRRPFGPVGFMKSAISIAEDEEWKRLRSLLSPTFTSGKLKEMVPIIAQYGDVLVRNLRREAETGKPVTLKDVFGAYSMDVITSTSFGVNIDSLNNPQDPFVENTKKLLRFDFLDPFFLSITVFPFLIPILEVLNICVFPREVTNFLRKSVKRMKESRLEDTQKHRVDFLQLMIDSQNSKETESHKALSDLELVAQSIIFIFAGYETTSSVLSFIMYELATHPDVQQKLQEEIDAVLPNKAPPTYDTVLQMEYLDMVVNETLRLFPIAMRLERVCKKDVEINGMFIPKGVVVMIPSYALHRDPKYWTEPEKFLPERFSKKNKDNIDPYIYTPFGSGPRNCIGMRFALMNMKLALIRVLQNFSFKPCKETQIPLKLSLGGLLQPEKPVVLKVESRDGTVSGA
Assay: Inhibition of human recombinant CYP3A4
Measured IC50 by item
Give just the number in µM; leave the unit off.

Cc1cnc(C)n1CC(=O)c1ccc(-c2ccc(N3C[C@H](Cn4ccnn4)OC3=O)cc2F)cn1; 10.7

Now examine the next entry.
[in] For the compound `O=C1O[C@@H](Cn2ccnn2)CN1c1ccc(-c2cccnc2)c(F)c1` , report IC50.
[out] 6.8

====

Assay: Solubility by nephelometric analysis
Assay type: physicochemical
Entries and their solubility kinetic
Use µM as the unit, but write only the number.

[in] # return recorded solubility kinetic for input `CC(C)(O)c1ccc(-c2ccc(N3C[C@H](Cn4ccnn4)OC3=O)cc2F)cn1`
[out] 200

[in] Look up and state reported solubility kinetic for `O=C1O[C@@H](Cn2ccnn2)CN1c1ccc(-c2ccc(CO)nc2)c(F)c1`
[out] 100

[in] Give a short answer stating reported solubility kinetic for `O=C1O[C@@H](Cn2ccnn2)CN1c1ccc(-c2cccnc2)c(F)c1` .
[out] 12.5

====

Tested on: Streptococcus pneumoniae
Experiment: Antibacterial activity against penicillin-susceptible Streptococcus pneumoniae AP671401
Format: functional
Below, each entry is listed alongside its reported MIC.
Please reply with the bare figure in µg/mL and do not write the unit itself.

[in] GET MIC | system: Streptococcus pneumoniae | item: `CO[C@@H](C)c1ccc(-c2ccc(N3C[C@H](Cn4ccnn4)OC3=O)cc2F)cn1`
[out] 0.25

[in] // fetch MIC; item: O=C1O[C@@H](Cn2ccnn2)CN1c1ccc(-c2ccc(C(O)CN3CCOCC3)nc2)c(F)c1 (stereo partly drawn) ; system: Streptococcus pneumoniae
[out] 0.25

[in] State measured MIC of the compound `O=C(CCCN1CCOCC1)c1ccc(-c2ccc(N3C[C@H](Cn4ccnn4)OC3=O)cc2F)cn1` with Streptococcus pneumoniae.
[out] 0.13

[in] Provide MIC, recorded with Streptococcus pneumoniae, of CN(C)CC(O)c1ccc(-c2ccc(N3C[C@H](Cn4ccnn4)OC3=O)cc2F)cn1 (stereo partly drawn)
[out] 0.25

[in] Provide MIC, tested on Streptococcus pneumoniae, for `Cc1nccn1CC(=O)c1ccc(-c2ccc(N3C[C@H](Cn4ccnn4)OC3=O)cc2F)cn1` .
[out] 0.13

[in] For Streptococcus pneumoniae, give the measured MIC of the entry `O=C(c1ccc(-c2ccc(N3C[C@H](Cn4ccnn4)OC3=O)cc2F)cn1)C1CCNCC1`
[out] 0.13
